molecular target: tissue factor (TF) on the surface of TF-positive tumor cells (human, UniProt P13726 33-295); assay: cell-based or functional assay
Property label: coagulation time V50 (s), MDA-MB-231 cells + human plasma, 2 mM Ca2+, 50 µg/mL antibody

- Binder: "30G11B7-hz1 (antibody, human IgG1, kappa, V domains shown, Humanized IgG1 kappa) VH: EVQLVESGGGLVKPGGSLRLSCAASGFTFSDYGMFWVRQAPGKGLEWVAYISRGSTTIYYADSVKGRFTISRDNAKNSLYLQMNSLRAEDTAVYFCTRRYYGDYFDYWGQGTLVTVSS VL: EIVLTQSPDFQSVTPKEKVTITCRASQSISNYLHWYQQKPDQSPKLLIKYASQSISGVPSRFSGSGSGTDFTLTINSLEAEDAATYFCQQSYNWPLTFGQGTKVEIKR"
  Observed value: 1450
- Binder: "27H8H3-hz1 (antibody, human IgG1, kappa, V domains shown, Humanized IgG1 kappa) VH: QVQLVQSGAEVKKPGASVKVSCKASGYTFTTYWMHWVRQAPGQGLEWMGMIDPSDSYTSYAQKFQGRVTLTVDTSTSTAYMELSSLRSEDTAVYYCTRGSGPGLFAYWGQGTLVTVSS VL: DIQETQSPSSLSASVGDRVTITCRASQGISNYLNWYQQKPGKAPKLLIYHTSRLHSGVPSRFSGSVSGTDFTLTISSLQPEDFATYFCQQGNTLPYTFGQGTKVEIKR"
  Observed value: 750
- Binder: "2B12B10-hz1 (antibody, human IgG1, kappa, V domains shown, Humanized IgG1 kappa) VH: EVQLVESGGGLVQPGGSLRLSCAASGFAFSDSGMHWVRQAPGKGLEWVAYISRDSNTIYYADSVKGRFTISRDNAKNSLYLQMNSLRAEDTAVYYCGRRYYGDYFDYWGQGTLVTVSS VL: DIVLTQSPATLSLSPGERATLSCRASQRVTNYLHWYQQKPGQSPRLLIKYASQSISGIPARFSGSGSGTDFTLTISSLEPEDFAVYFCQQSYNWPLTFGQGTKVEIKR"
  Observed value: 882
- Binder: "22F11H5-hz1 (antibody, human IgG1, kappa, V domains shown, Humanized IgG1 kappa) VH: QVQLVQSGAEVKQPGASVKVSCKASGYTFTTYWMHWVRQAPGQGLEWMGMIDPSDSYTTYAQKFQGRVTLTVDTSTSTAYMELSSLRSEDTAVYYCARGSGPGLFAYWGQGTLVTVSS VL: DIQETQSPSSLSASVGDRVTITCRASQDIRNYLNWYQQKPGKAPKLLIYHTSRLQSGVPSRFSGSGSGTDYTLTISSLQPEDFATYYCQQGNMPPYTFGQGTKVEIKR"
  Observed value: 1640

Data origin, for the record: patent US20250333541A1
